# method description: The drug is tested on Z-017 corresponding to mouse gut metagenome with ENA study accession number: PRJEB37062 and ENA sample accession number: ERS12561816 for biotransformation under anaerobic condition. The drug concentrations were measured over 9 timepoints collected between 0 and 24 hours of incubation by liquid-chromatography-coupled mass spectrometry (LC–MS); further: call rule not given here
# condition label: 2 µM
measurement label: Bacterial Biotransformation

>>> result("O=C1CC2(CCCC2)CC(=O)N1CCCCN1CCN(c2ncccn2)CC1")
"Compound NOT metabolized"
>>> result("CC[C@@]1(O)C(=O)OCc2c1cc1n(c2=O)Cc2cc3c(CN(C)C)c(O)ccc3nc2-1")
"Compound NOT metabolized"
>>> result("CC[C@H](C)C(=O)O[C@H]1CCC=C2C=C[C@H](C)[C@H](CC[C@@H]3C[C@@H](O)CC(=O)O3)[C@H]21")
"Compound metabolized"
>>> result("CC(N)C12CC3CC(CC(C3)C1)C2 (stereo not drawn)")
"Compound NOT metabolized"
>>> result("CCN(C)C(=O)Oc1cccc([C@H](C)N(C)C)c1.O=C(O)C(O)C(O)C(=O)O [RIVASTIGMINE TARTRATE]")
"Compound NOT metabolized"
>>> result("CC(=O)Nc1ccc(OC(C)=O)cc1 [DIACETAMATE]")
"Compound metabolized"
>>> result("C#C[C@]1(OC(C)=O)CC[C@H]2[C@@H]3CCC4=C/C(=N/O)CC[C@@H]4[C@H]3CC[C@@]21CC [NORGESTIMATE]")
"Compound NOT metabolized"
>>> result("CC(C)(C)NCC(O)c1cc(Cl)c(N)c(Cl)c1 (stereo not drawn)")
"Compound NOT metabolized"
>>> result("O=C1CN2Cc3c(ccc(Cl)c3Cl)N=C2N1 [ANAGRELIDE]")
"Compound NOT metabolized"
>>> result("CN1[C@@H]2CC[C@H]1C[C@@H](OC(=O)c1c[nH]c3ccccc13)C2")
"Compound NOT metabolized"
>>> result("N#Cc1ccc2[nH]cc(CCCCN3CCN(c4ccc5oc(C(N)=O)cc5c4)CC3)c2c1")
"Compound NOT metabolized"
>>> result("CC12CC3CC(C)(C1)CC(N)(C3)C2 [MEMANTINE]")
"Compound NOT metabolized"
>>> result("O=C(O)c1cc(/N=N/c2ccc(S(=O)(=O)Nc3ccccn3)cc2)ccc1O")
"Compound metabolized"
>>> result("CCCN(CCC)CCc1cccc2c1CC(=O)N2")
"Compound NOT metabolized"
>>> result("O=C(O)CCC(=O)O.O=C(O[C@H]1CN2CCC1CC2)N1CCc2ccccc2[C@@H]1c1ccccc1 [SOLIFENACIN SUCCINATE]")
"Compound NOT metabolized"
>>> result("COc1ccc2c(c1)c(CC(=O)O)c(C)n2C(=O)c1ccc(Cl)cc1")
"Compound NOT metabolized"
>>> result("Nc1nc(N)nc(-c2cc(Cl)ccc2Cl)n1.O=C(O)/C=C\\C(=O)O [IRSOGLADINE MALEATE]")
"Compound NOT metabolized"
>>> result("COC1=C(OC)C(=O)C(CCCCCCCCCCO)=C(C)C1=O")
"Compound NOT metabolized"

---

# method description: The drug is tested on Z-001 corresponding to mouse gut metagenome with ENA study accession number: PRJEB37062 and ENA sample accession number: ERS12561801 for biotransformation under anaerobic condition. The drug concentrations were measured over 9 timepoints collected between 0 and 24 hours of incubation by liquid-chromatography-coupled mass spectrometry (LC–MS)
# condition label: 2 µM
measurement label: Bacterial Biotransformation

>>> result("CC(NC(C)(C)C)C(=O)c1cccc(Cl)c1 (stereo not drawn) [BUPROPION]")
"Compound NOT metabolized"
>>> result("CN(C)CCOC(C)(c1ccccc1)c1ccccn1.O=C(O)CCC(=O)O (stereo not drawn) [DOXYLAMINE SUCCINATE]")
"Compound NOT metabolized"
>>> result("CC(C)c1nc(N(C)S(C)(=O)=O)nc(-c2ccc(F)cc2)c1/C=C/[C@@H](O)C[C@@H](O)CC(=O)[O-].CC(C)c1nc(N(C)S(C)(=O)=O)nc(-c2ccc(F)cc2)c1/C=C/[C@@H](O)C[C@@H](O)CC(=O)[O-].[Ca+2] [ROSUVASTATIN CALCIUM]")
"Compound NOT metabolized"

---

# method description: The drug is tested on Z-020 corresponding to rabbit gut metagenome with ENA study accession number: PRJEB37062 and ENA sample accession number: ERS12561819 for biotransformation under anaerobic condition. The drug concentrations were measured over 9 timepoints collected between 0 and 24 hours of incubation by liquid-chromatography-coupled mass spectrometry (LC–MS)
# condition label: 2 µM
measurement label: Bacterial Biotransformation

>>> result("CCN1CCCC1CNC(=O)c1cc(S(=O)(=O)CC)c(N)cc1OC (centres undefined) [AMISULPRIDE]")
"Compound NOT metabolized"
>>> result("CCOc1ccc2nc(S(N)(=O)=O)sc2c1 [ETHOXZOLAMIDE]")
"Compound NOT metabolized"
>>> result("CCCN1C[C@H](CSC)C[C@@H]2c3cccc4[nH]cc(c34)C[C@H]21.CS(=O)(=O)O [PERGOLIDE MESYLATE]")
"Compound NOT metabolized"

---

# method description: The drug is tested on Z-020 corresponding to rabbit gut metagenome with ENA study accession number: PRJEB37062 and ENA sample accession number: ERS12561819 for biotransformation under anaerobic condition. The drug concentrations were measured over 9 timepoints collected between 0 and 24 hours of incubation by liquid-chromatography-coupled mass spectrometry (LC–MS)
# condition label: 2 µM
measurement label: Bacterial Biotransformation

>>> result("CCOC(=O)[C@H](CCc1ccccc1)N[C@@H](C)C(=O)N1Cc2ccccc2C[C@H]1C(=O)O")
"Compound NOT metabolized"
>>> result("O=C1C(CC[S+]([O-])c2ccccc2)C(=O)N(c2ccccc2)N1c1ccccc1 (stereo not drawn)")
"Compound NOT metabolized"
>>> result("O=C1N=C([O-])NC1(c1ccccc1)c1ccccc1.[Na+] [PHENYTOIN SODIUM]")
"Compound NOT metabolized"
>>> result("CN(C/C=C/C#CC(C)(C)C)Cc1cccc2ccccc12")
"Compound NOT metabolized"
>>> result("CN[C@H]1CC[C@@H](c2ccc(Cl)c(Cl)c2)c2ccccc21")
"Compound metabolized"
>>> result("CN(C)C(=O)Oc1cccc([N+](C)(C)C)c1.[Br-] [NEOSTIGMINE BROMIDE]")
"Compound NOT metabolized"
>>> result("O=C(NC(Cc1cc(=O)[nH]c2ccccc12)C(=O)O)c1ccc(Cl)cc1 (stereo not drawn) [REBAMIPIDE]")
"Compound NOT metabolized"
>>> result("C[C@]12C=CC(=O)C=C1CC[C@@H]1[C@@H]2C(=O)C[C@@]2(C)[C@H]1CC[C@]2(O)C(=O)CO")
"Compound metabolized"

---

# method description: The drug is tested on Z-021 corresponding to metagenome with ENA study accession number: PRJEB37062 and ENA sample accession number: ERS12561820 for biotransformation under anaerobic condition. The drug concentrations were measured over 9 timepoints collected between 0 and 24 hours of incubation by liquid-chromatography-coupled mass spectrometry (LC–MS)
# condition label: 2 µM
measurement label: Bacterial Biotransformation

>>> result("CCOC(=O)[C@H](CCc1ccccc1)N[C@@H](C)C(=O)N1CCC[C@H]1C(=O)O.O=C(O)/C=C\\C(=O)O [ENALAPRIL MALEATE]")
"Compound metabolized"
>>> result("CC1Cc2ccccc2N1NC(=O)c1ccc(Cl)c(S(N)(=O)=O)c1 (stereo not drawn) [INDAPAMIDE]")
"Compound NOT metabolized"
>>> result("CC(=O)O[C@]1(C(C)=O)CC[C@H]2[C@@H]3C=C(C)C4=CC(=O)CC[C@]4(C)[C@H]3CC[C@@]21C [MEGESTROL ACETATE]")
"Compound NOT metabolized"
>>> result("CCc1cccc2c3c([nH]c12)C(CC)(CC(=O)O)OCC3 (stereo not drawn)")
"Compound NOT metabolized"
>>> result("COc1ccc2c(c1)c(CC(=O)O)c(C)n2C(=O)c1ccc(Cl)cc1")
"Compound NOT metabolized"
>>> result("COC1=C(OC)C(=O)C(CCCCCCCCCCO)=C(C)C1=O")
"Compound metabolized"
>>> result("CN1CCN(CCCN2c3ccccc3Sc3ccc(Cl)cc32)CC1.O=S(=O)(O)CCS(=O)(=O)O [PROCHLORPERAZINE EDISYLATE]")
"Compound NOT metabolized"
>>> result("COc1ccc2cc([C@H](C)C(=O)O)ccc2c1")
"Compound NOT metabolized"

---

# method description: The drug is tested on WLS-006 corresponding to human gut metagenome with ENA study accession number: PRJEB37062 and ENA sample accession number: ERS12561741 for biotransformation under anaerobic condition. The drug concentrations were measured over 9 timepoints collected between 0 and 24 hours of incubation by liquid-chromatography-coupled mass spectrometry (LC–MS)
# condition label: 2 µM
measurement label: Bacterial Biotransformation

>>> result("c1ccc2[nH]c(-c3cscn3)nc2c1")
"Compound NOT metabolized"
>>> result("Cc1cc2c(s1)Nc1ccccc1N=C2N1CCN(C)CC1")
"Compound NOT metabolized"
>>> result("CCc1oc2ccccc2c1C(=O)c1cc(Br)c(O)c(Br)c1")
"Compound metabolized"
>>> result("N#Cc1ccc2[nH]cc(CCCCN3CCN(c4ccc5oc(C(N)=O)cc5c4)CC3)c2c1")
"Compound metabolized"
>>> result("CCc1cccc2c3c([nH]c12)C(CC)(CC(=O)O)OCC3 (stereo not given)")
"Compound metabolized"
>>> result("Cc1nc(Nc2ncc(C(=O)Nc3c(C)cccc3Cl)s2)cc(N2CCN(CCO)CC2)n1 [DASATINIB ANHYDROUS]")
"Compound metabolized"
>>> result("CN1CCN(C2=Nc3ccccc3Oc3ccc(Cl)cc32)CC1.O=C(O)CCC(=O)O [LOXAPINE SUCCINATE]")
"Compound NOT metabolized"
>>> result("CC(NC(C)(C)C)C(=O)c1cccc(Cl)c1 (stereo not given)")
"Compound metabolized"
>>> result("CC(C)(C)NCC(O)COc1cccc2c1CC(O)C(O)C2 (stereo not given)")
"Compound NOT metabolized"
>>> result("N[C@@H](Cc1ccc(N(CCCl)CCCl)cc1)C(=O)O")
"Compound metabolized"
